# target-desc: UniProtKB Q05586
# test-method-notes: Binding affinity to C-terminal GFP-tagged Grin1 NMDA receptor (unknown origin) expressed in HEK293F cells assessed as dissociation constant by MST assay
# Type: cell-based
property: Kd

- molecule: "O=C1C[C@H](c2cccc(OCc3ccccc3)c2)[C@H]2Cc3ccccc3CN12"
  observed-measurement: "0.162 µM"
- molecule: "O=C1C[C@@H](c2cccc(OCc3ccccc3)c2)[C@@H]2Cc3ccccc3CN12"
  observed-measurement: "0.37 µM"
- molecule: "O=C1CC(c2cccc(OCc3ccccc3)c2)C2Cc3ccccc3CN12 (racemic)"
  observed-measurement: "0.496 µM"

---

# target-desc: Glutamate receptor ionotropic, NMDA 1 (Homo sapiens, UniProt Q05586)
# test-method-notes: Binding affinity to C-terminal GFP-tagged NMDA Grin1.M mutant (unknown origin) expressed in HEK293F cells assessed as dissociation constant by MST assay
# Type: cell-based

- molecule: "O=C1CC(c2cccc(OCc3ccccc3)c2)C2Cc3ccccc3CN12 (racemic)"
  measurement-units: "µM"
  Kd: 4.25

---

Parameter viability at 20 µM: see the listing below.
# Tested on: PC-12
# test-method-notes: Neuroprotective activity against NMDA-induced cell injury in rat PC12 cells assessed as cell viability at 20 uM incubated for 24 hrs MTT assay (reference value: 77.1+/- 1.3%)
# Type: functional
# reported-conditions: Rattus norvegicus, PC-12, 24 h, read-out: Activity
property: viability at 20 µM

- compound: "O=C1CC(c2cccc3ccccc23)C2Cc3ccccc3CN12 (racemic; 13l)"
  observed-measurement: "74.2%"
- compound: "COc1ccc(C2CC(=O)N3Cc4cc(O)ccc4CC23)cc1 (racemic; 13f)"
  observed-measurement: "81.7%"
- compound: "O=C1CC(c2ccccc2)C2Cc3ccc(F)cc3CN12 (racemic)"
  observed-measurement: "82.2%"
- compound: "O=C1CC(c2ccc(Cl)cc2)C2Cc3ccccc3CN12 (racemic)"
  observed-measurement: "77.1%"
- compound: "O=C1CC(c2ccccc2Cl)C2Cc3ccccc3CN12 (racemic; 13e)"
  observed-measurement: "77.9%"
- compound: "O=C1CC(c2ccc(C(F)(F)F)cc2)C2Cc3ccccc3CN12 (racemic; 13g)"
  observed-measurement: "85.6%"
- compound: "O=C1CC(c2cccc(OCc3ccccc3)c2)C2Cc3ccccc3CN12 (racemic)"
  observed-measurement: "94.4%"
- compound: "O=C1CC(c2ccc(F)cc2)C2Cc3ccccc3CN12 (racemic; 13d)"
  observed-measurement: "90.6%"
- compound: "O=C1CC(c2ccccc2)C2Cc3ccccc3CN12 (racemic; 13a)"
  observed-measurement: "85.3%"
- compound: "O=C1CC(c2ccccc2)C2Cc3ccc(OCc4ccccc4)cc3CN12 (racemic)"
  observed-measurement: "68.5%"
- compound: "O=C1CC(c2ccccc2Oc2ccccc2)C2Cc3ccccc3CN12 (racemic; 13k)"
  observed-measurement: "77.5%"
- compound: "O=C1CC(c2cccc(Oc3ccccc3)c2)C2Cc3ccccc3CN12 (racemic; 13j)"
  observed-measurement: "77.6%"
- compound: "Cc1ccc(C2CC(=O)N3Cc4ccccc4CC23)cc1 (racemic; 13i)"
  observed-measurement: "77%"
- compound: "O=C1CC(c2cccc(O)c2)C2Cc3ccccc3CN12 (racemic)"
  observed-measurement: "78.4%"
- compound: "O=C1CC(c2ccccc2)C2Cc3ccc(O)cc3CN12 (racemic)"
  observed-measurement: "82.4%"
